Source: the supplement of paper PMC10266784

B1: library; numbered along this chain (parent)
chain: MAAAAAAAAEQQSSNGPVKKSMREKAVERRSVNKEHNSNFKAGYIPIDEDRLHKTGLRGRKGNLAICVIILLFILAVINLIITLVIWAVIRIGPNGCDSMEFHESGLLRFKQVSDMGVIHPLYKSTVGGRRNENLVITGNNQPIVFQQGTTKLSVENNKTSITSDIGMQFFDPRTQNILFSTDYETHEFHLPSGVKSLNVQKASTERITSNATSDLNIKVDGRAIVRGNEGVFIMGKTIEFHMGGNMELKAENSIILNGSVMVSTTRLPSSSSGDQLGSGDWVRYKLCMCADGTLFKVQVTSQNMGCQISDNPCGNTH

Variants of: B1
Test: SGCB cell-surface expression functional score (HA stain, bin4 vs bin1, normalised to synonymous) (log10 ratio); higher = more cell-surface SGCB (functional)
Provide the recorded SGCB cell-surface expression functional score (log10) for the entries that follow.
# respond with the number and nothing more

Problem: Please give the documented SGCB cell-surface expression functional score (log10) of N217Y
Result: 0.59

Problem: Please give the documented SGCB cell-surface expression functional score (log10) of G106R
Result: -0.35

Problem: Please give the documented SGCB cell-surface expression functional score (log10) of I66T
Result: 0.03

Problem: Please give the documented SGCB cell-surface expression functional score (log10) of F241K
Result: -1.17

Problem: Please give the documented SGCB cell-surface expression functional score (log10) of I70T
Result: -0.22

Problem: Please give the documented SGCB cell-surface expression functional score (log10) of P192R
Result: -1.04

Problem: Please give the documented SGCB cell-surface expression functional score (log10) of V226E
Result: 0.47

Problem: Please give the documented SGCB cell-surface expression functional score (log10) of L52K
Result: -0.26

Problem: Please give the documented SGCB cell-surface expression functional score (log10) of V113W
Result: -1.16

Problem: Please give the documented SGCB cell-surface expression functional score (log10) of G59S
Result: -0.13

Problem: Please give the documented SGCB cell-surface expression functional score (log10) of K159H
Result: -0.05

Problem: Please give the documented SGCB cell-surface expression functional score (log10) of W282R
Result: 0.12

Problem: Please give the documented SGCB cell-surface expression functional score (log10) of G129I
Result: -0.84

Problem: Please give the documented SGCB cell-surface expression functional score (log10) of F146Y
Result: -0.75

Problem: Please give the documented SGCB cell-surface expression functional score (log10) of N79Q
Result: 0.29

Problem: Please give the documented SGCB cell-surface expression functional score (log10) of A203Y
Result: -2.13

Problem: Please give the documented SGCB cell-surface expression functional score (log10) of G167Y
Result: -1.42

Problem: Please give the documented SGCB cell-surface expression functional score (log10) of V145D
Result: -0.79

Problem: Please give the documented SGCB cell-surface expression functional score (log10) of V232F
Result: 0.02

Problem: Please give the documented SGCB cell-surface expression functional score (log10) of G228C
Result: 0.31

Problem: Please give the documented SGCB cell-surface expression functional score (log10) of G306F
Result: -0.43

Problem: Please give the documented SGCB cell-surface expression functional score (log10) of T150H
Result: 0

Problem: Please give the documented SGCB cell-surface expression functional score (log10) of N37M
Result: -0.37

Problem: Please give the documented SGCB cell-surface expression functional score (log10) of S161Q
Result: 0.14

Problem: Please give the documented SGCB cell-surface expression functional score (log10) of P17K
Result: 0.13

Problem: Please give the documented SGCB cell-surface expression functional score (log10) of N229H
Result: 1.03

Problem: Please give the documented SGCB cell-surface expression functional score (log10) of K20Q
Result: 0.49

Problem: Please give the documented SGCB cell-surface expression functional score (log10) of T213L
Result: -0.5

Problem: Please give the documented SGCB cell-surface expression functional score (log10) of K250L
Result: 0.54

Problem: Please give the documented SGCB cell-surface expression functional score (log10) of Q147V
Result: 0.26

Problem: Please give the documented SGCB cell-surface expression functional score (log10) of A65P
Result: -0.28

Problem: Please give the documented SGCB cell-surface expression functional score (log10) of A76I
Result: 0.22

Problem: Please give the documented SGCB cell-surface expression functional score (log10) of N199S
Result: 0.26

Problem: Please give the documented SGCB cell-surface expression functional score (log10) of K196P
Result: -0.01

Problem: Please give the documented SGCB cell-surface expression functional score (log10) of G228R
Result: -0.47

Problem: Please give the documented SGCB cell-surface expression functional score (log10) of D48Y
Result: 0.4

Problem: Please give the documented SGCB cell-surface expression functional score (log10) of S164D
Result: 0.11

Problem: Please give the documented SGCB cell-surface expression functional score (log10) of L257K
Result: -0.27

Problem: Please give the documented SGCB cell-surface expression functional score (log10) of V226N
Result: -0.64

Problem: Please give the documented SGCB cell-surface expression functional score (log10) of V200F
Result: -1.83

Problem: Please give the documented SGCB cell-surface expression functional score (log10) of G128A
Result: 0.14

Problem: Please give the documented SGCB cell-surface expression functional score (log10) of M262H
Result: 1.32

Problem: Please give the documented SGCB cell-surface expression functional score (log10) of K219I
Result: 0.23

Problem: Please give the documented SGCB cell-surface expression functional score (log10) of G194Q
Result: 0.38
